# Test system: HCT-15
# measurement_notes: MTS cell proliferation assay, Table 6
# Format: cell-based
# experimental_conditions: 10 μM, 72 h, relative to DMSO control
endpoint: Cell proliferation (%)
Write the value in % as a bare number.

For reference, reported Cell proliferation (%) for Cc1ccc(-c2nnc(CSc3nnc(-c4ccncc4)n3-c3ccccc3Cl)o2)cc1 stands at 54

For reference, reported Cell proliferation (%) for Oc1nc(-c2ccc(C(F)(F)F)cc2)nc2c1CSCC2 [XAV939, reference compound] stands at 90

For reference, reported Cell proliferation (%) for O=C(Nc1cccc2cccnc12)c1ccc(N2C(=O)[C@@H]3[C@H](C2=O)[C@@H]2C=C[C@H]3C2)cc1 [IWR-1, reference compound] stands at 64

For reference, reported Cell proliferation (%) for Cc1ccc(-c2noc(CSc3nnc(-c4ccncc4)n3-c3ccccc3Cl)n2)cc1 stands at 54

* * *

# Test system: DLD-1
# measurement_notes: MTS cell proliferation assay, Table 6
# Format: cell-based
# experimental_conditions: 10 μM, 72 h, relative to DMSO control
endpoint: Cell proliferation (%)
Write the value in % as a bare number.

Bench note, DLD-1: entry O=C(Nc1cccc2cccnc12)c1ccc(N2C(=O)[C@@H]3[C@H](C2=O)[C@@H]2C=C[C@H]3C2)cc1 [IWR-1, reference compound] , its Cell proliferation (%) = 97

Bench note, DLD-1: entry Cc1ccc(-c2nnc(CSc3nnc(-c4ccncc4)n3-c3ccccc3Cl)o2)cc1 , its Cell proliferation (%) = 78

Bench note, DLD-1: entry Oc1nc(-c2ccc(C(F)(F)F)cc2)nc2c1CSCC2 [XAV939, reference compound] , its Cell proliferation (%) = 102

Bench note, DLD-1: entry Cc1ccc(-c2noc(CSc3nnc(-c4ccncc4)n3-c3ccccc3Cl)n2)cc1 , its Cell proliferation (%) = 76

* * *

# Tested on: SW480 cells
# measurement_notes: Growth inhibition (GI50) MTS assay
# Assay type: cell-based
# experimental_conditions: Homo sapiens, 72 h
Hi there, I'd appreciate the recorded GI50 for every entry that follows.
Write the value in µM as a bare number.

For reference, reported GI50 for Cc1ccc(-c2nnc(CSc3nnc(-c4ccncc4)n3-c3ccccc3C)o2)cc1 [Compound 48] stands at 9

For reference, reported GI50 for COc1ccc(-n2c(SCc3nc(-c4ccc(Cl)cc4)no3)nnc2-c2ccncc2)cc1 [Compound 5] stands at 10

For reference, reported GI50 for Cc1ccc(-c2noc(CSc3nnc(-c4ccncc4)n3-c3ccccc3Cl)n2)cc1 [compound 43] stands at 8

For reference, reported GI50 for COc1ccc(-n2c(SCc3nc(-c4ccc(C)cc4)no3)nnc2-c2ccccc2OC)cc1 [Compound 8] stands at 10.5

For reference, reported GI50 for COc1ccc(-n2c(SCc3nc(-c4ccc(C)cc4)no3)nnc2-c2ccncc2)cc1 [Compound 1] stands at 11.5

* * *

# Test system: SW620
# measurement_notes: MTS cell proliferation assay, Table 6
# Format: cell-based
# experimental_conditions: 10 μM, 72 h, relative to DMSO control
endpoint: Cell proliferation (%)
# output: number + unit

For reference, reported Cell proliferation (%) for Cc1ccc(-c2nnc(CSc3nnc(-c4ccncc4)n3-c3ccccc3Cl)o2)cc1 [compound 60] stands at 50%

For reference, reported Cell proliferation (%) for Oc1nc(-c2ccc(C(F)(F)F)cc2)nc2c1CSCC2 [XAV939, reference compound] stands at 102%

For reference, reported Cell proliferation (%) for O=C(Nc1cccc2cccnc12)c1ccc(N2C(=O)[C@@H]3[C@H](C2=O)[C@@H]2C=C[C@H]3C2)cc1 [IWR-1, reference compound] stands at 48%

For reference, reported Cell proliferation (%) for Cc1ccc(-c2noc(CSc3nnc(-c4ccncc4)n3-c3ccccc3Cl)n2)cc1 [compound 43] stands at 33%
